Target: Pro-neuregulin-1, membrane-bound isoform (Homo sapiens) (UniProt Q02297)
Sequence (Q02297 whole entry, looked up, canonical isoform): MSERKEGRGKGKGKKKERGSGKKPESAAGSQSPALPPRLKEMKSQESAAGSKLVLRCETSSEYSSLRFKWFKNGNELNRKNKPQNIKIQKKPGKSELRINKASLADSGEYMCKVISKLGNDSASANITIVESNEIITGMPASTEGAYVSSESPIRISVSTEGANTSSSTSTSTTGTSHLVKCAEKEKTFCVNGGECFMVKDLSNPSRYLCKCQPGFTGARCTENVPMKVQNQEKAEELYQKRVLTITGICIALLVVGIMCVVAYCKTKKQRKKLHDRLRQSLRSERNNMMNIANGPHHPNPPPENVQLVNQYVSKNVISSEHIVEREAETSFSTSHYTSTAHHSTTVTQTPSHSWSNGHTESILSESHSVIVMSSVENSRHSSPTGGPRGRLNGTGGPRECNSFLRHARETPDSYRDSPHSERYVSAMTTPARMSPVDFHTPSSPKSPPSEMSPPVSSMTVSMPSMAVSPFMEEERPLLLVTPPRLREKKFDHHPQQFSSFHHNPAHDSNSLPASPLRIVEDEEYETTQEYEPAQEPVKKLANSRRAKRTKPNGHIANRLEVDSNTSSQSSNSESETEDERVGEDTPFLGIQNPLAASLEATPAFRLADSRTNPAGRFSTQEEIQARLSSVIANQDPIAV
Test: NRG1 binders on small-molecule microarrays, primary screen, psychiatric disease protein project, biochemical, small-molecule microarray, fluorescence 635/667 (AID 1075);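 note: score combines 667 nm spot fluorescence with signal to noise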
Details: NRG1 binding, 635 nm fluorescence, higher = more signal
Can you tell me composite z-score for the items I'm about to list?
One number for each entry.

CCOC(=O)[C@H](CC(C)C)NC(=O)CCC1CC(OC(=O)NCc2cccc3ccccc23)CC2(CCCC(COC(=O)NCCOc3ccccc3)O2)O1 (some centres undefined): 0.647
CC(C)CON=C1C[C@@H](O)[C@@H](O)[C@@H]2[C@@H]3C(=O)N(c4ccc(F)cc4F)C(=O)[C@@H]3CC[C@H]12: 0.668

Return reported composite z-score values for all items listed beneath this line.
1. COc1cc(O)c(C(=O)C=Cc2ccc3c(c2)OCO3)c(OC)c1
2. CCOC(=O)[C@H](CC(C)C)NC(=O)CCC1CC(OC(=O)NCc2cccc3ccccc23)CC2(CCCC(COC(=O)NCCCN3CCCC3=O)O2)O1 (some centres undefined)

[out]
1: -0.288; 2: 0.466

---

Assay: RPMI8226 myeloma cell viability, profiling panel, resazurin fluorescence, basal, 24 h, PK04 Diversity Set (AID 1180);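 note: RPMI8826 multiple myeloma cell line at 5000 cells per well; test concentration not given here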
Details: higher = more signal
Give z-score for every item shown.

Example compounds with recorded z-score:
C[C@H]1COC(=O)[C@@H]2CCCN2C(=O)[C@@H](C)COC(=O)[C@H](Cc2ccccc2)NC1=O: 0.586
CCCNC(=O)OC[C@H]1O[C@H](CCON=C(C)CCN2CCc3nc(CC)c(CC)cc3C2)C=C[C@@H]1Oc1ccc(OC)cc1: 0.622
CC(C)=CCCC(C)=CCON=C1C[C@@H](O)[C@@H](O)[C@@H]2[C@@H]3C(=O)N(C(C)(C)C)C(=O)[C@@H]3CC[C@@H]12: -0.11

Would you mind listing z-score for each of the following compounds?
1. C=COC[C@@H]1CN2[C@@H](CC[C@@H](C)[C@@H]2c2ccc(Br)cc2)C(=O)O1
2. O=C1[C@H]2[C@H]3[C@H](O)[C@H](O)CC(=NOC[C@@H](O)COCc4ccco4)[C@H]3CC[C@H]2C(=O)N1Cc1ccccc1
3. CO[C@@H]1COC(=O)[C@@H](C)COC(=O)[C@@H](C)NC(=O)CC=C[C@@H]1C
4. CC(=O)OC[C@H]1O[C@H](CC=NO[C@H](C)c2cn([C@H](CO)Cc3ccccc3)nn2)C=C[C@@H]1OC(C)=O

[out]
[0.169, 1.1, 0.635, 0.103]

Could you report z-score for every entry in the following list?
1. CCCNC(=O)OC[C@H]1O[C@H](CCON=C(C)C)C=C[C@@H]1Oc1ccc(OC)cc1
2. CO[C@H]1COC(=O)CC=C[C@@H](C)[C@H](NS(=O)(=O)c2ccc(C)cc2)COC(=O)CCC[C@@H]1C
3. CC(C)CON=C1C[C@@H](O)[C@@H](O)[C@@H]2[C@@H]3C(=O)N(C4CCCCC4)C(=O)[C@@H]3CC[C@@H]12
4. C=CC[C@@H]1C=C[C@H](ON=C(C)CCC(=O)OC[C@H]2O[C@H](C#Cc3ccccc3)C=C[C@@H]2Oc2ccc(C)cc2)[C@@H](CO)O1
5. O=C1[C@H]2[C@H]3[C@H](O)[C@H](O)CC(=NOCc4ccccc4)[C@H]3CC[C@H]2C(=O)N1Cc1ccc2c(c1)OCO2
6. C=Cc1ccc([C@H]2N[C@H](C(=O)O)CC[C@@H]2C)cc1
7. C=CC1=C[C@H](O)[C@@H]2O[C@@H]2C12OCCCO2

[out]
[-0.331, 0.545, -0.0596, -0.177, 0.129, -0.845, -0.38]

Look up z-score for the entries below, preserving their order.
1. CCOC(=O)[C@H](CC(C)C)NC(=O)CCC1CC(OC(=O)NCc2cccc3ccccc23)CC2(CCCC(COC(=O)NCc3ccncc3)O2)O1 (stereo partly specified)
2. COC(=O)[C@H](C)NC(=O)CCC1CC(OC(=O)NCc2cccc3ccccc23)CC2(CCCC(COC(=O)NCC(c3ccccc3)c3ccccc3)O2)O1 (stereo partly specified)

[out]
1: -0.404; 2: 1.04

---

Target: Torsin-1A (Homo sapiens)
Assay: torsin A binders from cell lysate, primary screen, small-molecule microarray, wild-type, 635/667 nm (AID 1149)
Settings: COS7 hTOR1A-WT lysate, 635 nm fluorescence, higher = more signal
Kindly return t if reported composite z-score is no lower than 0.7; return f if it is lower.

CCOC(=O)[C@H](Cc1ccccc1)NC(=O)CCC1CC(OC(=O)NCCc2ccc(F)cc2)CC2(CCCC(COC(=O)NCc3ccccc3)O2)O1 (some centres not stated): f

[in] Is composite z-score at least 0.7? Consider COC(=O)[C@H]1O[C@@H](c2c(OC)c(OC)c(C)c(OC)c2OC)[C@H](C)[C@@H](O)[C@H]1C
[out] t

[in] # check: composite z-score of CCCNC(=O)OC[C@H]1O[C@H](CCON=Cc2ccc(C(=O)N3[C@H](c4ccc(C)cc4)[C@@H](C)CC[C@H]3C(=O)OC)cc2)C=C[C@@H]1Oc1ccc(OC)cc1 is greater than or equal to 0.7
[out] f

[in] Quick check: does C=CC1=C[C@H](O)[C@@H]2O[C@@H]2C12OCCCO2 have composite z-score greater than or equal to 0.7?
[out] f

[in] Quick check, composite z-score >= 0.7? CCc1cc2c(nc1CC)CCN(CCC(C)=NO[C@H](C)c1cn([C@H](CO)Cc3ccccc3)nn1)C2
[out] t

[in] Is reported composite z-score greater than or equal to 0.7 here: O=C1C[C@@H](O)[C@@H](O)[C@@H]2[C@@H]3C(=O)N(c4cccc(Oc5ccccc5)c4)C(=O)[C@@H]3CC[C@H]12
[out] f

---

I'd appreciate it if you could supply z-score values for the items below.
Experiment: cell viability in Huh7 cells, primary screen, cytotoxicity control for HCV replication inhibitor project, CellTiter-Glo luminescence, basal, 48 h (AID 1143);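 note: Huh7 hepatoma cells carrying a hepatitis C replication reporter with no stimulus; test concentration not given here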
Settings: Huh7 HCV replicon, higher = more signal, called active from +8 up or from −8 down
Answers are plain numbers.

Consider the worked cases shown below.
CCOC(=O)[C@H](CC(C)C)NC(=O)CCC1CC(OC(=O)NCc2cccc3ccccc23)CC2(CCCC(COC(=O)NCCOc3ccccc3)O2)O1 (stereo not given in full): -0.248
CO[C@H]1COC(=O)[C@H](C)NC(=O)[C@@H](C)COC(=O)[C@H]2CCCN2C(=O)CC=C[C@H]1C: 0.191
C=C(C)C(=O)OCC1CN2[C@@H](CC[C@@H](C)[C@@H]2c2ccc(Br)cc2)C(=O)O1 (stereo not given in full): -0.295
O=c1n(Cc2cc3c(cc2Cl)OCO3)c(=O)n2n1CC[C@@H]1C(=NOC[C@@H](O)COCc3ccco3)[C@H]3O[C@H]3[C@@H](O)[C@@H]12: 0.376
CC(C)CON=C1C[C@@H](O)[C@@H](O)[C@@H]2[C@@H]3C(=O)N(c4cccc(Oc5ccccc5)c4)C(=O)[C@@H]3CC[C@@H]12: -1.26

Batch request: z-score for each of the following compounds.
1. O=C1[C@H]2[C@H]3[C@H](O)[C@H](O)CC(=NOCc4ccccc4)[C@@H]3CC[C@H]2C(=O)N1Cc1ccc2c(c1)OCO2
2. COc1ccc(O[C@H]2C=C[C@@H](c3ccccc3)O[C@@H]2CON=C(C)CCN2CCc3nc(-c4ccccc4)c(-c4ccccc4)cc3C2)cc1
3. COC(=O)[C@@H]1CC[C@H](C)[C@@H](c2ccc(C)cc2)N1C(=O)c1ccc(C=NO[C@@H](C)c2cn([C@H](CO)Cc3ccccc3)nn2)cc1
4. C=CC[C@@H]1C=C[C@H](ON=C(C)CCN2CCc3nc(-c4ccccc4)c(-c4ccccc4)cc3C2)[C@@H](CO)O1
5. CCOC(=O)CCN1C(=O)[C@H]2[C@H]3[C@H](O)[C@H](O)CC(=NNC(=O)OCc4ccccc4)[C@@H]3CC[C@H]2C1=O

[out]
1. 0.445
2. -0.203
3. -2.15
4. -0.648
5. 0.13

Hey, can you go through the list below and give me z-score for every item?
1. CCOC(=O)[C@H](Cc1ccccc1)NC(=O)CCC1CC(OC(=O)NCCc2ccc(F)cc2)CC2(CCCC(COC(=O)NCC3CCCCC3)O2)O1 (stereo not given in full)
2. CO[C@@H]1C=CCC(=O)N[C@@H](C)C(=O)OC[C@@H](OC)[C@H](C)CCCC(=O)OC[C@H]1C
3. O=c1n(-c2ccccc2)c(=O)n2n1CC[C@@H]1C(=NOCc3ccccc3)[C@H]3O[C@H]3[C@@H](O)[C@@H]12
4. CC(C)CCN1CCc2nc(COc3ccccc3)c3c(c2C1)CO[C@@H](C)C3

[out]
1: -0.224; 2: -0.468; 3: 0.492; 4: -0.265

[in] Which z-score is reported for this compound? O=C1C[C@@H](O)[C@@H](O)[C@@H]2[C@@H]3C(=O)N(Cc4ccccc4)C(=O)[C@@H]3CC[C@@H]12
[out] 0.398
